# Tested on: K562
# experimentSummary: Cell cycle arrest in human K562 cells assessed as accumulation at S phase at IC100 concentration using propidium iodide staining after 24 hrs by flow cytometric analysis
Exercise: state measured Activity for each of the compounds provided.
Give the figure together with its unit, number first.

Please fill in: Activity reported for COc1cc(C(=O)c2sc3cc(F)ccc3c2C)cc(OC)c1OC = 17.1%

Please fill in: Activity reported for COc1cc(C(=O)c2cc3c(OC)cccc3s2)cc(OC)c1OC = 18.9%

Please fill in: Activity reported for COc1cc(C(=O)c2sc3ccccc3c2C)cc(OC)c1OC = 13.8%

Please fill in: Activity reported for COc1cc(C(=O)c2sc3c(OC)cccc3c2C)cc(OC)c1OC = 15.2%

Please fill in: Activity reported for COc1ccc2c(C)c(C(=O)c3cc(OC)c(OC)c(OC)c3)sc2c1 = 22.1%

Please fill in: Activity reported for CCOc1ccc2c(C)c(C(=O)c3cc(OC)c(OC)c(OC)c3)sc2c1 = 38.1%

Please fill in: Activity reported for COc1cc(C(=O)c2sc3cccc(OC)c3c2C)cc(OC)c1OC = 16.9%

Please fill in: Activity reported for COc1cc(C(=O)c2cc3cccc(OC)c3s2)cc(OC)c1OC = 26.8%
